Tested on: ADCK3
Construct: gene CABC1
Conditions: concentration: 1 μM, replicates: in singlicate; n = 1;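 further: KINOMEscan kinase panel screen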
quantity-kind: %Inh (%)
Answers are plain numbers, in %.

compound-structure-string	unit-label	endpoint-result
CC(C)(C)n1cnc2c(N)ncnc21	%	0
Fc1ccc(-c2nn3c(OCC(F)(F)F)cccc3c2-c2ccncc2)cc1	%	18
O=C(Nc1cccc(-c2nn3ncccc3c2-c2ccnc(Nc3cccc(C(F)(F)F)c3)n2)c1)c1c(F)cccc1F	%	1
COC(=O)Nc1nc2cc(Oc3ccc(NC(=O)Nc4cc(F)ccc4F)cc3)ccc2[nH]1.Cl	%	7

(Q) Tell me measured %Inh for COc1ccc(Nc2ncc(C#N)c(Nc3ccccc3C(N)=O)n2)cc1N1CCN(C)CC1.Cl please.
(A) 0

---

Give measured %Inh for each item. Keep answers brief.
Test system: GSK3B
Details: concentration: 1 μM, replicates: in singlicate; n = 1
Give bare numbers, in %.

Here's what some known entries look like.
compound	unit-label	%Inh
NS(=O)(=O)c1cccc(-c2ccc3ncc(N4CCOCC4)nc3c2)c1 [GSK1535721]	%	0
COc1cc(Nc2nccc(N3CCC(NC(=O)c4cccc(NC(C)=O)c4)C3)n2)cc(OC)c1OC (centres unmarked) [GSK1379754]	%	0
Cc1ccc(NC(=O)c2ccnc(N3CCN(C)CC3)c2)cc1-c1ccc(C(=O)NCC2CC2)cc1 [GW775604]	%	0

For each of the compounds below, note its %Inh.
1. NS(=O)(=O)CCc1cccc(Nc2nccc(-c3c(-c4cccc(NC(=O)c5c(F)cccc5F)c4)nn4ccccc34)n2)c1 [GSK336735]
2. CC(C)(C)n1cnc2c(N)ncnc21 [SKF-97359]
3. Cl.Nc1ncnc2occ(-c3ccc(NC(=O)Nc4cc(C(F)(F)F)ccc4F)cc3)c12 [SB-707548]
4. CCc1ccnc(/C=C/c2n[nH]c3cc(Sc4ccccc4C(=O)NC)ccc23)c1
5. O=C(NCCNc1ccnc(Nc2ccc(F)cc2)n1)c1cc2ccccc2s1 [GSK1379874]

(A)
1. 6
2. 0
3. 8
4. 6
5. 6

---

Tested on: MKK7
Details: concentration: 1 μM, replicates: in singlicate; n = 1
quantity-kind: %Inh (%)
One number for each entry, in %.

Please review the entries below; each comes with its answer.
molecule	unit-label	endpoint-result
O=C(c1ccc(-c2cc(-c3c[nH]nc3-c3ccccn3)ccn2)cc1)N1CCOCC1	%	24
CCn1cnc2c(N)ncnc21	%	0
NS(=O)(=O)c1cccc(-c2ccc3ncc(N4CCOCC4)nc3c2)c1	%	16
Cc1cccc(Cn2ccn3c(=O)cc(N4CCOCC4)nc23)c1	%	0
Cc1ccc(NC(=O)c2ccnc(N3CCN(C)CC3)c2)cc1-c1ccc(C(=O)NCC2CC2)cc1	%	0
Cc1ccc(C(=O)NCC(N)=O)cc1-n1c(C)cc(OCc2ccc(F)cc2F)c(Br)c1=O	%	0

For each of the items listed, what is its %Inh?
1. Cc1c(Cn2c(C)nn3c(=O)cc(N4CCOC(C)C4)nc23)cccc1C(F)(F)F (centres unmarked)
2. c1ccc(-c2cc(-c3c[nH]nc3-c3ccccn3)ccn2)cc1
3. COc1ccc(CNC(=O)NC2CCN(c3ccnc(Nc4ccc(OC)cc4)n3)C2)cc1 (centres unmarked)
4. Cc1nnc(-c2ccc3ncc(-c4ccc(S(C)=O)cc4)n3c2)o1 (centres unmarked)
5. O=C(NCCCN1CCOCC1)c1cccc(Nc2nccc(Nc3ccc(Oc4ccccc4)cc3)n2)c1
6. COC(=O)Nc1nc2cc(Oc3ccc(NC(=O)Nc4cc(F)ccc4F)cc3)ccc2[nH]1.Cl
7. CSc1ccc(-c2cc3ncnc(SCC(=O)O)c3s2)cc1
8. N#Cc1ccc(-c2cc(-c3c[nH]nc3-c3ccccn3)ccn2)cc1

(A)
0
0
14
18
0
0
0
0
